meta.source: patent US9447116B2

# assay target: LEDGF-Integrase interaction (Human immunodeficiency virus type 1 group M subtype B, UniProt P12497)
# Construct: His6-tagged integrase (78 nM final concentration); purchased Prof; Zeger Debyser, Katholieke Universiteit Leuven (supplied by an academic laboratory, not a commercial vendor)
# test: HTRF Interaction assay (S9118)
# Set-up: species or system HIV
# condition details: His6-tagged integrase and MBP-LEDGF integrase binding domain; table values
observation type: IC50

Consider the reported IC50 for these molecules:
>  <molecule>
CCOC(C(=O)O)c1c(C)nc2sc3c(c2c1-c1ccc2cnn(C)c2c1)CCCC3 (stereo not shown)

>  <IC50>
> 100 µM

$$$$
>  <molecule>
CCOC(C(=O)O)c1c(C)nc2sc3c(c2c1-c1cnn(CC)c1)CCCC3 (stereo not shown)

>  <IC50>
> 100 µM

$$$$
>  <molecule>
Cc1nc2sc3c(c2c(-c2cccc(C#N)c2)c1C(OC(C)(C)C)C(=O)O)CCCC3 (stereo not shown)

>  <IC50>
> 100 µM

$$$$

get_value(item= CCOC(C(=O)O)c1c(C)nc2sc3c(c2c1-c1ccccc1O)CCCC3 (stereo not shown) , readout=IC50) returns > 100 µM

get_value(item= CCOC(C(=O)O)c1c(C)nc2sc3c(c2c1-c1ccc2cn[nH]c2c1)CCCC3 (stereo not shown) , readout=IC50) returns 33.1 µM

get_value(item= Cc1nc2sc3c(c2c(-c2ccc4[nH]ncc4c2)c1C(OC(C)(C)C)C(=O)O)CCCC3 (stereo not shown) , readout=IC50) returns > 100 µM

get_value(item= Cc1cc(C)n(-c2cccc(-c3c(C(OC(C)(C)C)C(=O)O)c(C)nc4sc5c(c34)CCCC5)c2)n1 (stereo not shown) , readout=IC50) returns 29.6 µM

====

# assay target: LEDGF-Integrase interaction (Human immunodeficiency virus type 1 group M subtype B, UniProt P12497)
# Construct: His6-tagged integrase (78 nM final concentration); purchased Prof; Zeger Debyser, Katholieke Universiteit Leuven (supplied by an academic laboratory, not a commercial vendor)
# test: HTRF Interaction assay (S9118)
# Design: species or system HIV
# condition details: His6-tagged integrase and MBP-LEDGF integrase binding domain; table values
observation type: IC50 (µM)
Reply numerically in µM, unit not repeated.

>  <compound>
CCn1cc(-c2c(C(OC(C)(C)C)C(=O)O)c(C)nc3sc4c(c23)CCCC4)cn1 (stereo not drawn) [Example 8]

>  <reported measurement>
23.8

$$$$
>  <compound>
Cc1nc2cc(-c3c(C(OC(C)(C)C)C(=O)O)c(C)nc4sc5c(c34)CCCC5)ccc2s1 (stereo not drawn) [Example 20]

>  <reported measurement>
11.8

$$$$
>  <compound>
Cc1nc2sc3c(c2c(-c2cnc4ccoc4c2)c1C(OC(C)(C)C)C(=O)O)CCCC3 (stereo not drawn) [Example 18]

>  <reported measurement>
30.3

$$$$
>  <compound>
Cc1nc2sc3c(c2c(-c2ccc4cnn(C)c4c2)c1C(OC(C)(C)C)C(=O)O)CCCC3 (stereo not drawn) [Example 11]

>  <reported measurement>
12.2

$$$$
>  <compound>
CCc1ccc(-c2c(C(OC(C)(C)C)C(=O)O)c(C)nc3sc4c(c23)CCCC4)c(O)c1 (stereo not drawn) [Example 5]

>  <reported measurement>
2.7

$$$$

get_value(item= Cc1nc2sc3c(c2c(-c2cccc(-n4cccn4)c2)c1C(OC(C)(C)C)C(=O)O)CCCC3 (stereo not drawn) [Example 38] , readout=IC50) returns 97.5

get_value(item= Cc1nc2sc3c(c2c(-c2ccccc2O)c1C(OC(C)(C)C)C(=O)O)CCCC3 (stereo not drawn) [Example 16] , readout=IC50) returns 57.4

get_value(item= Cc1nc2sc3c(c2c(-c2ccc4c(cnn4C)c2)c1C(OC(C)(C)C)C(=O)O)CCCC3 (stereo not drawn) [Example 12] , readout=IC50) returns 5.13

get_value(item= Cc1nc2sc3c(c2c(-c2cnc4cc[nH]c4c2)c1C(OC(C)(C)C)C(=O)O)CCCC3 (stereo not drawn) [Example 30] , readout=IC50) returns 15.5

get_value(item= CCOC(C(=O)O)c1c(C)nc2sc3c(c2c1-c1ccc2nsnc2c1)CCCC3 (stereo not drawn) [Example 21] , readout=IC50) returns 64.8
